Molecular target: Protein translocase subunit SecA (Escherichia coli (strain K12)) (UniProt P10408)
Sequence (P10408 whole entry): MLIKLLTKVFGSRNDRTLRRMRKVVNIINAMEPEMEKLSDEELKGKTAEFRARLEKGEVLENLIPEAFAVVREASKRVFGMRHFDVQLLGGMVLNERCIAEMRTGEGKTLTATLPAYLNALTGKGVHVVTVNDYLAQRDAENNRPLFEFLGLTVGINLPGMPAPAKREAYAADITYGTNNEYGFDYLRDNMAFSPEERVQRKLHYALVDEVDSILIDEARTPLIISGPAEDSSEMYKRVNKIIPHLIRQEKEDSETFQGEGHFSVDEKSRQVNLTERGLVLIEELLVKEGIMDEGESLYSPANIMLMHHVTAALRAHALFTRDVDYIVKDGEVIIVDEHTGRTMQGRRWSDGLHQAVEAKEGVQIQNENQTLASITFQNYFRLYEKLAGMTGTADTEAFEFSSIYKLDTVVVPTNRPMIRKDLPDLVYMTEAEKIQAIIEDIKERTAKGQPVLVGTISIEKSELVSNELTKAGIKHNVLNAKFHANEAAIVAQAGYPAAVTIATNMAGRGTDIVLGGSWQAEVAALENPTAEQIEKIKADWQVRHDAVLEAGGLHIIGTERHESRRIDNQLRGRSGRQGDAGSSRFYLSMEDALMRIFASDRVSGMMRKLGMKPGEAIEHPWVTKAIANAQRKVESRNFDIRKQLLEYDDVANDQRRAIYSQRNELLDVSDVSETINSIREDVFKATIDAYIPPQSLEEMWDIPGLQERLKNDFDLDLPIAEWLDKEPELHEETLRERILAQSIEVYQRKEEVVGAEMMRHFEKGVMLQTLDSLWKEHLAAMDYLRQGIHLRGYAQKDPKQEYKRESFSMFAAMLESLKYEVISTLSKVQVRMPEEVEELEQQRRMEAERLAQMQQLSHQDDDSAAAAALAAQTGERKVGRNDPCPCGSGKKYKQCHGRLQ
Assay: Assay to Identify E. coli SecA ATPase Inhibitors
Format: functional
Set-up: scale not given: direction of the effect not stated beside the values
Conditions: 30 µM
Potency and affinity values are given separately.
experimentalEndpoint: Percent Effect (%)
Numbers only; they are read as %.

Query: Entry under review: Cc1nc(CN(C)C2CCN(Cc3ccc4ccccc4n3)C2)no1 (centres undefined) . Reported Percent Effect?
Reply: 0.184

Query: Similarly, COc1ccc(CN2CCC3(CC2)CCN(CC(C)C)C3=O)cc1 ?
Reply: -1.79

Query: Similarly, CCS(=O)(=O)c1ncc(CN(C)Cc2ccccn2)n1CCOC ?
Reply: -6.13

Query: Similarly, Cn1cc(NC(=O)N2CCC(CN3CCCC3)CC2)ccc1=O ?
Reply: -0.732

Query: Similarly, CN(Cc1noc(C2CC2)n1)C1CCN(Cc2ccncc2)C1 (centres undefined) ?
Reply: -0.687

Query: Similarly, Cc1n[nH]c(C)c1C1COCCN1C(=O)c1ccccc1 (centres undefined) ?
Reply: 0.213

Query: Similarly, O=C(NCC1CCOC1)Nc1ccc(OCC(F)(F)F)nc1 (centres undefined) ?
Reply: 0.633

Query: Similarly, c1ccc(OC2CCCC2)c(CNC2CCc3ncnn3C2)c1 (centres undefined) ?
Reply: -3.8

Query: Similarly, CCOC(=O)N1CCN(C(=O)c2sc(-c3ccc(F)cc3)nc2C)CC1 ?
Reply: -7.21

Query: Similarly, CCC(=O)N1CCCC1c1nccnc1Nc1nc(C)cc(C)n1 (centres undefined) ?
Reply: -0.0687

Query: Similarly, CCc1nccn1-c1cncc(C2CCCN2Cc2cccnc2)n1 (centres undefined) ?
Reply: -0.52

Query: Similarly, CNC(=O)c1ccc(C2CN(C(=O)COC)CCO2)nc1 (centres undefined) ?
Reply: 0.488

Query: Similarly, Cc1nn(-c2ccccc2)c(C)c1CNC1CCc2ncnn2C1 (centres undefined) ?
Reply: -0.655

Query: Similarly, Cc1cc(OCC(=O)N2CCCC(c3noc(C)n3)C2)no1 (centres undefined) ?
Reply: 2.24

Query: Similarly, O=C1CC2(CCN(S(=O)(=O)c3cccs3)C2)CN1c1ccccc1 (centres undefined) ?
Reply: -4.36

Query: Similarly, Cc1[nH]nc(CCC(=O)N2CCCC(OCc3cccnc3)C2)c1C (centres undefined) ?
Reply: -5.06

Query: Similarly, Cc1ncc(-c2ccnc(N3CCCCCC3)n2)c(-c2cccnc2)n1 ?
Reply: -0.407

Query: Similarly, COc1ccc(CC(=O)N2C[C@@H]3COC[C@]3(CN(C)C)C2)cc1 ?
Reply: -3.95

Query: Similarly, CCc1nc(C2CCCN2C(=O)c2ccoc2C)no1 (centres undefined) ?
Reply: 2.59

Query: Similarly, Cc1nccn1-c1cccc(C2CCCN2S(=O)(=O)c2cn(C)cn2)n1 (centres undefined) ?
Reply: -6.36

Query: Similarly, COc1cc(N2CCCC(c3nccn3Cc3cscn3)C2)nc(N)n1 (centres undefined) ?
Reply: -4.57

Query: Similarly, Cc1ccc(Cl)cc1N1CCC(CNC(=O)CC(F)(F)F)C1 (centres undefined) ?
Reply: -3.87

Query: Similarly, COCCc1noc(CN2CCCCC2Cn2nc(C)cc2C)n1 (centres undefined) ?
Reply: -2.9

Query: Similarly, Cc1cc(C(=O)NC2CCc3nc(C)cn3C2)[nH]n1 (centres undefined) ?
Reply: -3.96

Data provenance: ChEMBL document CHEMBL3988442
